# experimental-target: T1, mouse SPNS2 (mouse, UniProt Q91VM4 1-549)
# T1 sequence: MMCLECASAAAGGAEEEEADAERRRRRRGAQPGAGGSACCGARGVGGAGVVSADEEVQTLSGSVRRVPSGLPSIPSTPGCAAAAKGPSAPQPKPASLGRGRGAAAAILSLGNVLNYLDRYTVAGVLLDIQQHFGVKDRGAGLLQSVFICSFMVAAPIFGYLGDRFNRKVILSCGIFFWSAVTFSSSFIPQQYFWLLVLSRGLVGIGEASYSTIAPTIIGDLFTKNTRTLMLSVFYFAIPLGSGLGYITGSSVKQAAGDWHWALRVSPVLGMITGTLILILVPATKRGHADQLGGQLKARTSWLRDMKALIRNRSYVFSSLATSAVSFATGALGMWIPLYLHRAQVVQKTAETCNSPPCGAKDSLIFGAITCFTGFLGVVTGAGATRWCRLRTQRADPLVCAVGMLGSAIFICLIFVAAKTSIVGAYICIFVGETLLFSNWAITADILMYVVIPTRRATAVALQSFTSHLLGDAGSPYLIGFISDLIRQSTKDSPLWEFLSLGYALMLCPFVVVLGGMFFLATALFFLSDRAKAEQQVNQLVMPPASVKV
# protocol-text: cell-based or functional assay
Reported pIC50, S1P transport inhibition (S1PR3 Ca2+ FLIPR bioassay) values for the following binders.

Sample 89-1207D (antibody, IgG2b, V domains shown) VH: EVQLVGSGGGLVQPGRSMKLSCEASGFTFSNHYMAWVRQAPTKGLEWVATISTGGGNTYYRDSVKGRFTISRDNARSILSLQMDSLRSEDTATYYCARQDYSNYMGGFAYWGQGTLVTVSS VL: QFVLTQPNSVSTNLGSTVKLSCTRSIGNIGNNYVNWYKQYEGRSPTTMIYRDDERPDGVPDRFSGSIDRSSNSALLTINNVQTEDEADYFCQSFSSGMFIFGGGTKLTVL — what was its pIC50, S1P transport inhibition (S1PR3 Ca2+ FLIPR bioassay)?
7.6 pIC50 (M)

Would you mind telling me what pIC50, S1P transport inhibition (S1PR3 Ca2+ FLIPR bioassay) value was observed for 18-0211B (antibody, IgG2b, V domains shown) VH: AVQLVGSGGGLVQPGRSMKLSCEASGFTFSNHYMAWVRQAPTRGLEWVATISTGGGNTYYRDSVKGRFTISRDNTRSTLSLQMDSLRSEDTATYYCTRQDYTNYMGGFAYWGQGTLVTVSS VL: QFVLTQPNSVSTNLGSTVKLSCTRSIGNIGNNYVNWYKQYEGRSPTTLIYRDDERPDGVPDRFSGSIDRSSNSALLTINSVQTEDGADYFCQSFSSGIFIFGGGTTLTVL ?
7.9 pIC50 (M)

Can you look up the measured pIC50, S1P transport inhibition (S1PR3 Ca2+ FLIPR bioassay) of 80-1104A (antibody, IgG2b, V domains shown) VH: EVQLVETGGGLVQPGSSLKLSCSTSGFTFSETWMSWVRQAPGKGLEWVGLIKDKNSNYEANYAESVKGRFTISRDDSKRRVYLQMYTLRDQDTATYYCTSHEDFYYYSSYYFDYWGQGVMVTVSS VL: DIVLTQSPATLSVTPGESVSLSCRASQGISTSIHWYQQKSNESPRLLIKYASQSMSGIPSRFSGSGSGTDFTLRINRVESEDFSVYYCQQSYNLPLTFGSGTKLEIKR for me?
7.8 pIC50 (M)

Would you kindly share the measured pIC50, S1P transport inhibition (S1PR3 Ca2+ FLIPR bioassay) for 84-1111F (antibody, IgG2b, V domains shown) VH: EVQVVESGGGLVQPGRSMKLSCAALGFTFRDYYMAWVRQTPTKGLEWVAAISTGGGNTYYRDSVKGRFTISRDNAKSTLYLKMDSLRSDDTATYYCARNPYGNYFDYWGQGVMVTVSS VL: QFVLSQPNSVSTNLGSTVKLSCKRSTGNIGSNYVHWYQRHEGRSPTTMIYRDDKRPNGVPDRFSGSIDRSSNSALLTINNVQTEDEADYFCQSYSGGMYLFGGGTTLTVL ?
8.3 pIC50 (M)
